# assayInfo: qHTS Assay for Lipid Storage Modulators in Drosophila S3 Cells
# conditionSet: BODIPY lipid droplet fluorescence, 18-24 h, cells fed with added oleic acid; series mostly up to 46.1 µM
Out of some 320,000 compounds screened, about 2,100 (0.66%) were called active. Not shown: some 53% with an inconclusive outcome. Calls come from the whole dose curve; as a rule, active = well fitted inhibition curve with a large enough effect in the signal ratio, with a control signal flat (not every such curve was filed as active); inconclusive = small, poorly fitted or top-dose-only effect, or effect the other way, or a change in a side signal; inactive = flat fitted curve, though single readings scatter; the % refers to the signal ratio. What follows is part of a selection rich in actives, with near analogues and random picks from the rest.
Your answer must be one of the following: yes for active, no for inactive

Q: Hi, do you know how CCC1CCCCN1CCCNC(=O)c1ccc(/C=C2/Sc3ccccc3NC2=O)cc1 (stereo unspecified) came out in this test?
Result: yes

Q: Same question for C=CCN(Cc1cn(C)nc1-c1cccc(Cl)c1)C1CCS(=O)(=O)C1 (stereo unspecified) please.
Result: no

Q: Same question for O=C(NCC(F)(F)F)Nc1nnc(C(F)(F)F)s1 please.
Result: no

Q: Same question for CCOc1ccccc1N1C(=O)c2ccc(S(=O)(=O)c3ccc(C(=O)O)cc3)cc2C1=O please.
Result: no

Q: Same question for CCc1ccc(NC(=O)CCC(=O)Nc2nnc(C(F)(F)F)s2)cc1 please.
Result: no

Q: Same question for CCCCC(=O)NS(=O)(=O)c1ccc(N=NN2CCOCC2)cc1 please.
Result: no

Q: Same question for CCC(NC(=O)Nc1nnc(C(F)(F)F)s1)(C(F)(F)F)C(F)(F)F please.
Result: yes

Q: Same question for O=C1NC(c2ccccc2Cl)Nc2ccccc21 (stereo unspecified) please.
Result: no

Q: Same question for O=c1cc2c(n[nH]1)-c1ccccc1CC2 please.
Result: no

Q: Same question for O=C(CCC(=O)N1CCCC1)Nc1nnc(C(F)(F)F)s1 please.
Result: no

Q: Same question for CCOc1ccccc1N1C(=O)c2ccc(C(=O)O)cc2C1=O please.
Result: yes

###

# assayInfo: qHTS Assay for Lipid Storage Modulators in Drosophila S3 Cells;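 for cell number change: cells counted by Cell Tracker Red CMTPX staining in the red channel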
# conditionSet: BODIPY lipid droplet fluorescence, 18-24 h, cells fed with added oleic acid; measured here: cell count max response
Hit rate of the full screen: of about 320,000 compounds, about 2,100 (0.66%) were called active. Not shown: some 53% with an inconclusive outcome. The list comes from a sample in which actives are over-represented; it also holds close analogues and randomly drawn compounds.
For each entry below, report its cell number change value.
Just the number please, in %, no unit attached.

Q: Quick one: cell number change of COc1nn(-c2ccccc2)c(=O)c(Cl)c1Cl ?
Result: -20

Q: Same question for Cc1cccc(-n2c(C)cc(C(=O)NC3CCCCC3)c2C)c1 please.
Result: -27.1

Q: Same question for COc1cc(NC(=S)N(C)CCC#N)c(OC)cc1Cl please.
Result: -2.16

Q: Same question for COc1c(Cl)cnn(-c2ccccc2)c1=O please.
Result: -2.85

Q: Same question for CCn1c(=Nc2ccc(N3CCOCC3)cc2)ccc2ccccc21 please.
Result: -184

Q: Same question for COc1ccc2c(c1)C(C)=CC(C)(C)N2C(=O)C(C)N1C(=O)c2ccccc2C1=O (stereo unspecified) please.
Result: 1.95

###

# assayInfo: qHTS Assay for Lipid Storage Modulators in Drosophila S3 Cells
# conditionSet: BODIPY lipid droplet fluorescence, 18-24 h, cells fed with added oleic acid; series mostly up to 46.1 µM
Out of some 320,000 compounds screened, about 2,100 (0.66%) were called active. About 53% were inconclusive and are not listed. Calls follow the shape of the dose curve; as a rule, active = well fitted inhibition curve with a large enough effect in the signal ratio, with a control signal flat (not every such curve was filed as active); inconclusive = small, poorly fitted or top-dose-only effect, or effect the other way, or a change in a side signal; inactive = flat fitted curve, though single readings scatter; the % refers to the signal ratio. What follows is part of a selection rich in actives, with near analogues and random picks from the rest.
Your answer must be one of the following: T = active, F = inactive

Q: Hi, do you know how Cc1ccc(N(C(=O)CCC(=O)Nc2cc(C)on2)C(C(=O)NC2CCCC2)c2ccccc2)cc1 (stereo not given) came out in this test?
Result: F

Q: Same question for CC(=O)Nc1ccc(Nc2nc(-c3sc(NC(C)=O)nc3C)cs2)cc1 please.
Result: T

Q: Same question for COc1cccc(NC(=O)CN(C)C(=O)CSc2nc(C)cc(C)n2)c1 please.
Result: F

Q: Same question for CCC(CC)C(=O)Nc1nnc(S(=O)(=O)N2CCCc3ccccc32)s1 please.
Result: F

Q: Same question for CCOC(=O)c1cc(C)nc(Sc2ccc(C)cc2)c1C#N please.
Result: F

Q: Same question for COC(=O)C(C)SC1=N/C(=C/c2ccc(-n3cncn3)cc2)C(=O)N1 (stereo not given) please.
Result: F

Q: Same question for O=C(Nc1cccc(Cl)c1)c1cc2c(=O)n3ccccc3nc2s1 please.
Result: F

Q: Same question for CC(=O)NS(=O)(=O)c1ccc(NC(=O)c2cc3c(=O)n4ccccc4nc3s2)cc1 please.
Result: F

Q: Same question for Cc1cc(C)c2c(CN3CC(C)OC(C)C3)cc(=O)oc2c1C (stereo not given) please.
Result: F

Q: Same question for CCCCCCC(=O)Nc1nc(C)c(-c2csc(Nc3ccc(Cl)cc3)n2)s1 please.
Result: F

###

# assayInfo: qHTS Assay for Lipid Storage Modulators in Drosophila S3 Cells;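 for cell number change: cells counted by Cell Tracker Red CMTPX staining in the red channel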
# conditionSet: BODIPY lipid droplet fluorescence, 18-24 h, cells fed with added oleic acid; measured here: cell count max response
Screen size: about 320,000 compounds; about 2,100 (0.66%) were called active. About 53% were inconclusive and are not listed. This is one part of a sample in which actives are shown more often than they occur.
Could you mark each record T if its cell number change falls strictly under -10%, and F if it equals or exceeds it?

Q: cell number change under -10%? Item: Cc1ccc(C)c(NC(=O)COc2coc(CN3CCc4ccccc4C3)cc2=O)c1
Result: T

Q: Same question for Cc1ncc(CO)c(/C=N/NC(=O)c2ccc(O)cc2)c1O please.
Result: F

Q: Same question for c1ccc(OCc2nc3c4c(ncn3n2)-c2ccccc2CC42CCCC2)cc1 please.
Result: T

Q: Same question for Cc1cc(C)cc(NC(=O)COc2coc(CN3CCc4ccccc4C3)cc2=O)c1 please.
Result: T

Q: Same question for CCOC(=O)N1CCN(C(=O)c2ccc3nc(N4CCCCC4)sc3c2)CC1 please.
Result: F

###

# assayInfo: qHTS Assay for Lipid Storage Modulators in Drosophila S3 Cells
# conditionSet: BODIPY lipid droplet fluorescence, 18-24 h, cells fed with added oleic acid; series mostly up to 46.1 µM
The whole screen tested about 320,000 compounds, of which about 2,100 (0.66%) were called active. About 53% were inconclusive and are not listed. Calls follow the shape of the dose curve; as a rule, active = well fitted inhibition curve with a large enough effect in the signal ratio, with a control signal flat (not every such curve was filed as active); inconclusive = small, poorly fitted or top-dose-only effect, or effect the other way, or a change in a side signal; inactive = flat fitted curve, though single readings scatter; the % refers to the signal ratio. Shown is part of a subset that was picked to be rich in actives.
Your answer must be one of the following: label 1 for active, label 0 for inactive

Q: Hi, do you know how CCSc1nnc(NC(=O)CSc2nnc(-c3c[nH]c4ccccc34)n2CC)s1 came out in this test?
Result: label 0

Q: Same question for Cc1cccn2c(=O)c3cc(C(N)=S)c(=N)n(CCCN4CCOCC4)c3nc12 please.
Result: label 0

Q: Same question for CCn1c(=N)c(S(=O)(=O)c2ccc(C)cc2)cc2c(=O)n3ccccc3nc21 please.
Result: label 0

Q: Same question for Cc1cccn2c(=O)c3cc(C(=O)NCCCN4CCCC4=O)n(C)c3nc12 please.
Result: label 0

Q: Same question for COCCCn1c(C(=O)NC2CCCCC2C)cc2c(=O)n3cccc(C)c3nc21 (stereo not given) please.
Result: label 1

Q: Same question for CCc1nnc(NC(=O)CSc2nnc(-c3c[nH]c4ccccc34)n2C)s1 please.
Result: label 0

Q: Same question for COCCCn1c(C(=O)N2CC(C)OC(C)C2)cc2c(=O)n3cccc(C)c3nc21 (stereo not given) please.
Result: label 0

Q: Same question for COCCCn1c(=NC(C)=O)c(C#N)cc2c(=O)n3cccc(C)c3nc21 please.
Result: label 0

Q: Same question for COCCCn1c(=N)c(C(=O)NCC2CCCO2)cc2c(=O)n3cccc(C)c3nc21 (stereo not given) please.
Result: label 0

Q: Same question for N#Cc1ccccc1OCC(=O)NCC(c1ccc(F)cc1)N1CCOCC1 (stereo not given) please.
Result: label 0

###

# assayInfo: qHTS Assay for Lipid Storage Modulators in Drosophila S3 Cells
# conditionSet: BODIPY lipid droplet fluorescence, 18-24 h, cells fed with added oleic acid; series mostly up to 46.1 µM
About 2,100 (0.66%) of roughly 320,000 compounds were called active. Not shown: some 53% with an inconclusive outcome. Calls come from the whole dose curve; as a rule, active = well fitted inhibition curve with a large enough effect in the signal ratio, with a control signal flat (not every such curve was filed as active); inconclusive = small, poorly fitted or top-dose-only effect, or effect the other way, or a change in a side signal; inactive = flat fitted curve, though single readings scatter; the % refers to the signal ratio. The entries come from a sample that favours actives as a whole.
Your answer must be one of the following: active, inactive

Q: Hi, do you know how CCOC(=O)c1[nH]c(C)c(C(=O)NC2CCCCCC2)c1C came out in this test?
Result: inactive

Q: Same question for CC[n+]1c(S(=O)(=O)[O-])ccc2ccc(C)cc21 please.
Result: inactive

Q: Same question for O=c1[nH]c2ccc(S(=O)(=O)N3CCCCC3)cc2o1 please.
Result: inactive

Q: Same question for CC[n+]1c(C)sc2cc(C)ccc21 please.
Result: inactive

Q: Same question for CCN(CC)CCCNC(=O)c1[nH]c(C)c(C(=O)NC2CCCCC2)c1C please.
Result: active

Q: Same question for CCOC(=O)c1[nH]c(C)c(C(=O)NC2CCCCC2)c1C please.
Result: inactive
